test system: E. coli AG100; test: In vitro antibacterial activity test (broth microdilution); assay type: cell-based; details: Escherichia coli, AG100
ASSAY_READOUT: MIC90 (µg/mL)
One number for each entry, in µg/mL.

The cases that follow already have their MIC90 on record.
COMPOUND	MIC90 [µg/mL]
C[C@H](O/N=C(\C(=O)N[C@@H]1C(=O)N2C(C(=O)[O-])=C(C[n+]3cnc(NCCN)c(NCCNC(=O)c4cc(=O)c(O)cn4O)c3)CSC12)c1nc(N)sc1Cl)C(=O)O (some centres unmarked) [Compound 21]	0.5
CC(C)(O/N=C(\C(=O)N[C@@H]1C(=O)N2C(C(=O)[O-])=C(/C=C/C[n+]3cnc(N)c(NC(=O)CCN)c3)CSC12)c1nc(N)sc1Cl)C(=O)O (some centres unmarked) [Compound 62]	0.5

Record MIC90 for all entries; do not skip any.
1. CC(C)(O/N=C(\C(=O)N[C@@H]1C(=O)N2C(C(=O)[O-])=C(/C=C/C[n+]3cnc(N)c(NCCN)c3N)CSC12)c1csc(N)n1)C(=O)O (some centres unmarked) [Compound 44]
2. CC(C)(O/N=C(\C(=O)N[C@@H]1C(=O)N2C(C(=O)[O-])=C(C[n+]3cnc(N)c(NCCNC(=N)N)c3)CSC12)c1csc(N)n1)C(=O)O (some centres unmarked) [Compound 40]

Result string:
0.25
4

Query string: MIC90 of CC(C)(O/N=C(\C(=O)N[C@@H]1C(=O)N2C(C(=O)[O-])=C(/C=C/C[n+]3cnc(N)c(NCCN)c3)CSC12)c1nc(N)sc1Cl)C(=O)O (some centres unmarked) [Compound 54] on E. coli AG100?
Result string: 0.25

----------
test system: M. catarrhalis 2524; experiment: In vitro antibacterial activity test (broth microdilution); type: cell-based; conditions: Moraxella catarrhalis; M. catarrhalis 2524; read-out: MIC90
ASSAY_READOUT: MIC90 (µg/mL)
Answers are plain numbers, in µg/mL.

The cases that follow already have their MIC90 on record.
COMPOUND	UNIT_LABEL	MIC90
CC(C)(O/N=C(\C(=O)N[C@@H]1C(=O)N2C(C(=O)[O-])=C(C[n+]3cnc(N)c(NC(=O)CCNC(=O)c4cc(=O)c(O)cn4O)c3)CSC12)c1nsc(N)n1)C(=O)O (some centres unmarked) [Compound 19]	µg/mL	1
CC(C)(O/N=C(\C(=O)N[C@@H]1C(=O)N2C(C(=O)[O-])=C(C[n+]3cnc(N)c(NCCNC(=O)c4cc(=O)c(O)cn4O)c3)CSC12)c1nc(N)sc1Cl)C(=O)O (some centres unmarked) [Compound 15]	µg/mL	0.25
CC(C)(O/N=C(\C(=O)N[C@@H]1C(=O)N2C(C(=O)[O-])=C(C[n+]3cnc(N)c(NCCNC(=O)c4cc(=O)c(O)cn4O)c3)CSC12)c1nsc(N)n1)C(=O)O (some centres unmarked) [Compound 16]	µg/mL	1
CC(C)(O/N=C(\C(=O)N[C@@H]1C(=O)N2C(C(=O)[O-])=C(C[n+]3cnc(N)c(NCCCCNC(=O)c4cc(=O)c(O)cn4O)c3)CSC12)c1csc(N)n1)C(=O)O (some centres unmarked) [Compound 7]	µg/mL	2

Here's the next entry for you.
Query string: Could you tell me which MIC90 is on file for CN(CCNc1c[n+](CC2=C(C(=O)[O-])N3C(=O)[C@@H](NC(=O)/C(=N\OC(C)(C)C(=O)O)c4csc(N)n4)C3SC2)cnc1N)C(=O)c1ccc(O)c(O)c1 (some centres unmarked) [Compound 27] ?
Result string: 0.25
